From: patent US20240368104A1

Recorded SI (Selectivity Index, CC50/IC50) by entry
# Tested on: SARS-COV-2
# Assay procedure: microbe, parasite or virus in culture
# Assay type: cell-based
# Set-up: unit not given here
# Cond: SARS-COV-2; values >50 assumed to be 50
Counter-ions that a name gives are not always drawn.
Readout name: SI (Selectivity Index, CC50/IC50)

Molecule | Test value
COc1cc2c(OC)c3c(c(-c4ccc5c(c4)OCO5)c2cc1OC)COC3=O [Example 262] | 5.40
COc1cc2cc3c(c(-c4ccc(N5CCN(C)CC5)nc4)c2cc1OC)C(=O)OC3 [Example 167] | 3.73
COc1cc2cc3c(c(-c4ccc5c(c4)OC(F)(F)O5)c2cc1OC)C(=O)OC3 [Example 221] | 275.32
COc1cc2cc3c(c(-c4cnc(NCCCn5ccnc5)nc4)c2cc1OC)C(=O)OC3 [Example 16] | 1.6
COc1cc2cc3c(c(-c4ccc(N(C)C(=O)N5CCOCC5)nc4)c2cc1OC)C(=O)OC3 [Example 235] | 1.00
COc1cc2cc3c(c(-c4ccc(C(F)(F)F)c5cccnc45)c2cc1OC)C(=O)OC3 [Example 119] | 11.45
COc1ccc2c(-c3c4c(cc5cc(OC)c(OC)cc35)COC4=O)ccnc2c1 [Example 150] | 1.0
COc1cc2cc3c(c(-c4ccc(N(C)C(=O)c5ccc(Cl)nc5)nc4)c2cc1OC)C(=O)OC3.Cl [Example 234] | 1.00
COc1cc2cc3c(c(-c4cnc(N5CC(C)(C)OC(C)(C)C5)nc4)c2cc1OC)C(=O)OC3 [Example 114] | 1.0
COc1cc2cc3c(c(-c4ccc(Cl)nc4)c2cc1OC)C(=O)OC3 [Example 185] | 149.26
COc1cc2cc3c(c(-c4cnc(N5CCC[C@@H]5CN5CCCC5)nc4)c2cc1OC)C(=O)OC3 [Example 110] | 5.78
COc1cc2cc(CO)c(C(=O)NC(C)C)c(-c3cc4c(cc3O)OCO4)c2cc1OC [Example 228] | 1.50
COCCN(CCOC)c1ccc(-c2c3c(cc4cc(OC)c(OC)cc24)COC3=O)cn1 [Example 174] | 2.62
CCC(C)CN(C)c1ccc(-c2c3c(cc4cc(OC)c(OC)cc24)COC3=O)cn1.Cl (centres unmarked) [Example 176] | 22.63
COc1cc2cc3c(c(-c4ccc(N(C)C(C)C)nc4)c2cc1OC)C(=O)OC3 [Example 188] | 1418.97
COc1cc2cc3c(c(-c4cnc(O[C@H]5CN6CCC5CC6)nc4)c2cc1OC)C(=O)OC3 [Example 17] | 1.59
CCN(CCO)c1ncc(-c2c3c(cc4cc(OC)c(OC)cc24)COC3=O)cn1.Cl [Example 81] | 2.43
CCN(CC)c1ccc(-c2c3c(cc4cc(OC)c(OC)cc24)COC3=O)cn1 [Example 160] | 60.45
COc1cc2cc3c(c(-c4cc(C)nc5c(F)cc(F)cc45)c2cc1OC)C(=O)OC3 [Example 139] | 1.0
COc1cc2cc3c(c(-c4ccc(N(C)CCC5OCCO5)nc4)c2cc1OC)C(=O)OC3 [Example 161] | 7.74
COc1cc2cc3c(c(-c4ccc(N(C)c5nnc(C)o5)nc4)c2cc1OC)C(=O)OC3 [Example 231] | 1.00
CCN(C)c1ncc(-c2c3c(cc4cc(OC)c(OC)cc24)COC3=O)cn1 [Example 106, hydrochloride] | 297.58
COc1cc2cc3c(c(-c4cnc(N(C)C)nc4)c2cc1OC)C(=O)OC3 [Example 11] | 309.03
CCCCCCCCN(CCCCCCCC)c1ncc(-c2c3c(cc4cc(OC)c(OC)cc24)COC3=O)cn1.Cl [Example 95] | 1.00
COc1cc2cc3c(c(-c4ccc(N5CCCC(C)C5)nc4)c2cc1OC)C(=O)OC3 (centres unmarked) [Example 126] | 122.97
CCOC(=O)C1CCCN(c2ncc(-c3c4c(cc5cc(OC)c(OC)cc35)COC4=O)cn2)C1 (centres unmarked) [Example 15] | 11.37
COc1cc2cc3c(c(-c4ccc(N[C@H]5CCc6c(cccc6OC)C5)nc4)c2cc1OC)C(=O)OC3.Cl [Example 172] | 1.0
COc1cc2cc3c(c(-c4ccc(N5CCC(N(C)C)CC5)nc4)c2cc1OC)C(=O)OC3.Cl [Example 238] | 2.84
CCCCCCOCCN(CCCCCC)c1ncc(-c2c3c(cc4cc(OC)c(OC)cc24)COC3=O)cn1 [Example 48] | 2.55
COCCN(C)c1ccc(-c2c3c(cc4cc(OC)c(OC)cc24)COC3=O)cn1.Cl [Example 168] | 42.46
COc1cc2cc3c(c(-c4ccc(N5CC(C)CC(C)C5)nc4)c2cc1OC)C(=O)OC3 (centres unmarked) [Example 127] | 45.29
CCN(C)c1ccc(-c2c3c(cc4cc(OC)c(OC)cc24)COC3=O)cc1 [Example 248] | 344.5
